Let's look at some compounds and their measured Cytotoxicity: Relative Cell Viability (% of Negative Control).
System: normal human dermal fibroblasts (NHDF) cells
Assay: Fibroblast cytotoxicity (CellTiter-Glo)
Type: cell-based
Details: 10 µM
Parameter Measured: Cytotoxicity: Relative Cell Viability (% of Negative Control)

# Compound, Value Measured
records = [
    ("CN1C(=O)c2cccc(NC(=O)c3ccnn3C)c2C1=O [compound 25835862]", "104.6 % of Negative Control"),
    ("Cc1noc(C)c1C(=O)N1CCN(c2ccc(-c3noc(C(C)C)n3)cn2)CC1 [compound 49701731]", "102.2 % of Negative Control"),
    ("O=C(Nc1cnc(Oc2ccccc2)nc1)c1cccc(Cl)c1 [compound 71799766]", "99.9 % of Negative Control"),
    ("C(=C\\c1cccs1)/c1nnc(-c2cccs2)o1 [compound 6263817]", "84.3 % of Negative Control"),
    ("Cc1cc(-c2nnc(NC(=O)C3Oc4ccccc4OC3C)o2)n(C)n1 (centres unmarked) [compound 44070699]", "97.2 % of Negative Control"),
]
